ASSAY SYSTEM: T1, human FcγRIIa-H (the high-affinity H131 variant) (human, UniProt P12318 34-317)
T1 sequence (looked up): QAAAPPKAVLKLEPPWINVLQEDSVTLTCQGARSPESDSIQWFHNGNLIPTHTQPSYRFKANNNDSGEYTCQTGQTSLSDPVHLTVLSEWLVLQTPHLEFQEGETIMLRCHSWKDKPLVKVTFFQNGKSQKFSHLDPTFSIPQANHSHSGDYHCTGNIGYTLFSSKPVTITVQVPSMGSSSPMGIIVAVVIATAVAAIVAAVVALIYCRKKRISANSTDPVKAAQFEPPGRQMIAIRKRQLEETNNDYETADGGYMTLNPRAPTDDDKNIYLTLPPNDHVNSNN
MEASUREMENT NOTES: cell-based or functional assay
MEASURE: Avg ΔActivity Rank
Give your answer as a number; write no unit.

Completed entries (count: 8):
>>> numeric_result("AIP-191692 (antibody, V domains shown) VH: EVQLVESGGALVKPGGSLRLSCAASGFTFSKAWMSWVRQAPGKGLEWVGRIKSVTDGETTDYAAPVKGRFTISRDDSKSTLYLQMNSLKTEDTAVYYCTSSFCCRGGSCPSHDTSYCGGGSGYKSYYYMDVWGKGTTVTVSS VL: QSVLTQPPSASGTPGQRVTISCSGSSSNIGSSSVSWYQQLPGTAPKLLIYKNNQRPSGVPDRFSGSKSGTSASLAISGLRSEDEADYYCSTWDDSLSVRVFGGGTKLTVL")
2
>>> numeric_result("AIP-194564 (antibody, V domains shown) VH: EVQLVESGGALVKPGGSLRLSCAASGFTFSKAWMSWVRQAPGKGLEWVGRIKSVTDGETTDYAAPVKGRFTISRDDSKSTLYLQMNSLKTEDTAVYYCTSSFCCRSGGSCPSHDTSYCGGQYKSYYYMDVWGKGTTVTVSS VL: QSVLTQPPSASGTPGQRVTISCSGSSSNIGSSSVSWYQQLPGTAPKLLIYKNNQRPSGVPDRFSGSKSGTSASLAISGLRSEDEADYYCSTWDDSLSVRVFGGGTKLTVL")
2
>>> numeric_result("AIP-107388 (antibody, V domains shown) VH: EVQLVESGGALVKPGGSLRLSCAASGFTFSKAWMSWVRQAPGKGLEWVGRIKSVTDGETTDYAAPVKGRFTISRDDSKSTLYLQMNSLKTEDTAVYYCTSSFCCRGGSCPSHDTSYCGGGQYKSYYYMDVWGKGTTVTVSS VL: QSVLTQPPSASGTPGQRVTISCSGSSSNIGSSSVSWYQQLPGTAPKLLIYKNNQRPSGVPDRFSGSKSGTSASLAISGLRSEDEADYYCSTWDDSLSVRVFGGGTKLTVL")
2
>>> numeric_result("AIP-169752 (antibody, V domains shown) VH: EVQLVESGGALVKPGGSLRLSCAASGFTFSKAWMSWVRQAPGKGLEWVGRIKSVTDGETTDYAAPVKGRFTISRDDSKSTLYLQMNSLKTEDTAVYYCTSSFCCRGGGSCPSHDTSYCGGQYKSYYYMDVWGKGTTVTVSS VL: QSVLTQPPSASGTPGQRVTISCSGSSSNIGSSSVSWYQQLPGTAPKLLIYKNNQRPSGVPDRFSGSKSGTSASLAISGLRSEDEADYYCSTWDDSLSVRVFGGGTKLTVL")
2
>>> numeric_result("AIP-145328 (antibody, V domains shown) VH: EVQLVESGGALVKPGGSLRLSCAASGFTFSKAWMSWVRQAPGKGLEWVGRIKSVTDGETTDYAAPVKGRFTISRDDSKSTLYLQMNSLKTEDTAVYYCTSSFCCRGGSGGSCPSHDTSYCGGQYKSYYYMDVWGKGTTVTVSS VL: QSVLTQPPSASGTPGQRVTISCSGSSSNIGSSSVSWYQQLPGTAPKLLIYKNNQRPSGVPDRFSGSKSGTSASLAISGLRSEDEADYYCSTWDDSLSVRVFGGGTKLTVL")
2
>>> numeric_result("AIP-125646 (antibody, V domains shown) VH: EVQLVESGGALVKPGGSLRLSCAASGFTFSKAWMSWVRQAPGKGLEWVGRIKSVTDGETTDYAAPVKGRFTISRDDSKSTLYLQMNSLKTEDTAVYYCTSSFCCRGGSCPSHDTSYCGQYKSYYYMDVWGKGTTVTVSS VL: QSVLTQPPSASGTPGQRVTISCSGSSSNIGSSSVSWYQQLPGTAPKLLIYKNNQRPSGVPDRFSGSKSGTSASLAISGLRSEDEADYYCSTWDDSLSVRVFGGGTKLTVL")
2.5
>>> numeric_result("AIP-185680 (antibody, V domains shown) VH: EVQLVESGGALVKPGGSLRLSCAASGFTFSKAWMSWVRQAPGKGLEWVGRIKSVTDGETTDYAAPVKGRFTISRDDSKSTLYLQMNSLKTEDTAVYYCTSSFCCRGGGGSCPSHDTSYCGGQYKSYYYMDVWGKGTTVTVSS VL: QSVLTQPPSASGTPGQRVTISCSGSSSNIGSSSVSWYQQLPGTAPKLLIYKNNQRPSGVPDRFSGSKSGTSASLAISGLRSEDEADYYCSTWDDSLSVRVFGGGTKLTVL")
1
>>> numeric_result("AIP-167295 (antibody, V domains shown) VH: EVQLVESGGALVKPGGSLRLSCAASGFTFSKAWMSWVRQAPGKGLEWVGRIKSVTDGETTDYAAPVKGRFTISRDDSKSTLYLQMNSLKTEDTAVYYCTSSFCCRGGSCPSHDTSYCGGQYSYYYMDVWGKGTTVTVSS VL: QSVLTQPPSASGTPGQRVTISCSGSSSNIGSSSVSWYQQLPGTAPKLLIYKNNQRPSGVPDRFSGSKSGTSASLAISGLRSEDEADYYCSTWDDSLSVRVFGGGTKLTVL")
2

Prompt: Reported Avg ΔActivity Rank, binder AIP-131762 (antibody, V domains shown) VH: EVQLVESGGALVKPGGSLRLSCAASGFTFSKAWMSWVRQAPGKGLEWVGRIKSVTDGETTDYAAPVKGRFTISRDDSKSTLYLQMNSLKTEDTAVYYCTSSFCGGPSHDTSYCGGQYKSYYYMDVWGKGTTVTVSS VL: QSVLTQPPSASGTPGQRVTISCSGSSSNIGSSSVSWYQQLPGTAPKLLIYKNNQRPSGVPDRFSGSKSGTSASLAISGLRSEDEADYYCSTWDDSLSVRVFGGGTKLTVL : ____
Response: 1
